# System: NCI-H292 (human NSCLC) cells
# assay info: In vitro cytotoxicity, MTT assay, in absence or presence of neutrophil elastase
# Type: cell-based
# measurement conditions: Homo sapiens, NCI-H292, 72 h exposure, with 20 nM neutrophil elastase, read-out: IC50 NCI-H292 + neutrophil elastase
pIC50: −log10 of the molar value. Where a SMILES comes first, the peptide text is derived from it. [ ]: non-standard residue; d: D form. The star is where a group is joined. Dolaproine = CO[C@@H]([C@@H]1CCCN1)[C@@H](C)C(=O)O; Dil = CC[C@H](C)[C@H](NC)[C@@H](CC(=O)O)OC; X1 = C[C@@H](N*)[C@@H](O)c1ccccc1; NMeV = CN[C@H](C(=O)O)C(C)C

molecule	pIC50
CC[C@H](C)[C@@H]([C@@H](CC(=O)N1CCC[C@H]1[C@H](OC)[C@@H](C)C(=O)N[C@H](C)[C@@H](O)c1ccccc1)OC)N(C)C(=O)[C@@H](NC(=O)[C@@H](NC)C(C)C)C(C)C [Compound 9, reference compound] (H-[NMeV]V[Dil][Dolaproine]-X1)	9.44
CCc1c2c(nc3ccccc13)-c1cc3c(c(=O)n1C2)COC(=O)[C@]3(O)CC [Compound 7, 7-ethyl camptothecin, reference compound]	8.34
CNC(=O)[C@@H](N)CCN(C(=O)CO)[C@@H](c1cc(-c2cc(F)ccc2F)cn1Cc1ccccc1)C(C)(C)C	9.01
CC(C)(C)[C@H](c1cc(-c2cc(F)ccc2F)cn1Cc1ccccc1)N(CCCN)C(=O)CO	9.57
